Attribution: PubChem BioAssay AID1963827

- Tested on: 994946-033-R-J1-PDC complex spheroid viability
- assay-details: Anticancer human tumor 994946-033-R-J1-PDC patient-derived melanoma cell line growth inhibition [POLQ]
- test-context: curve of first compound; second compound 0.1 µM
measurement-kind: pIC50
Field pIC50 (float): negative decimal logarithm of the concentration in molar.

For orientation, consider the following solved cases.
{"columns": ["compound", "pIC50"],
 "data": [
  ["O=C(c1cc(Cc2n[nH]c(=O)c3ccccc23)ccc1F)N1CCN(C(=O)C2CC2)CC1 + Cc1cccc(N(C)C(=O)C2C(O)CCN2c2nc(C)cc(C(F)(F)F)c2C#N)c1", 5.38],
  ["O=c1[nH]cc(F)c(=O)[nH]1 + Cc1cccc(N(C)C(=O)C2C(O)CCN2c2nc(C)cc(C(F)(F)F)c2C#N)c1", 5.60]
]}

Now examine the next entry.
Task: Find the measured pIC50: item COc1cccc(OCCCN)c1-c1cc(Nc2cnc(C#N)cn2)n[nH]1 + COC1C(OC(N)=O)C(O)C(Oc2ccc3c(O)c(NC(=O)c4ccc(O)c(CC=C(C)C)c4)c(=O)oc3c2C)OC1(C)C , target or system 994946-033-R-J1-PDC complex spheroid viability.
Result: 7.84

###

- Test system: 994946-033-R-J1-PDC complex spheroid viability
- assay-details: Anticancer human tumor 994946-033-R-J1-PDC cell line growth inhibition [POLQ];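 further: spheroids exposed to drugs for 7 days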;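 on viability, T/C: 100% = DMSO vehicle treated spheroids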
- test-context: second compound 0.316 µM; first compound 0.1 µM; stronger effect = lower value
Below: a set of entries, each annotated with reported viability, T/C.
Kindly answer with a numeric value in %, unit omitted.

Below, each entry is followed by its recorded viability, T/C result.
{"columns": ["molecule", "units-symbol", "viability, T/C"],
 "data": [
  ["C#Cc1c(F)ccc2cc(O)cc(-c3ncc4c(N5CC6CCC(C5)N6)nc(OCC56CCCN5CC(F)C6)nc4c3F)c12 (stereo not drawn) + Nc1ccc(C#CCN(C(=O)Cc2ncc(C(F)(F)F)cc2C(F)(F)F)c2ccc(F)cc2)nn1", "%", 84.7],
  ["COc1cc(C2c3cc4c(cc3C(OC3OC5COC(C)OC5C(O)C3O)C3COC(=O)C23)OCO4)cc(OC)c1O (stereo not drawn) + COC1C(OC(N)=O)C(O)C(Oc2ccc3c(O)c(NC(=O)c4ccc(O)c(CC=C(C)C)c4)c(=O)oc3c2C)OC1(C)C", "%", 70.7]
]}

Task: # input molecule: COc1cc2cc(C(=O)CCC(=O)O)sc2cc1OC + Nc1ccc(C#CCN(C(=O)Cc2ncc(C(F)(F)F)cc2C(F)(F)F)c2ccc(F)cc2)nn1 ; wanted: its viability, T/C
Result: 86

###

- Tested on: 994946-033-R-J1-PDC complex spheroid viability
- assay-details: Anticancer human tumor 994946-033-R-J1-PDC cell line growth inhibition [POLQ];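 further: spheroids exposed to drugs for 7 days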;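 on viability, T/C: 100% = DMSO vehicle treated spheroids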
- test-context: second compound 3.16 µM; first compound 0.000316 µM; stronger effect = lower value
measurement-kind: viability, T/C (%)
Unit % implied. Number only.

{"columns": ["compound", "units-symbol", "viability, T/C"],
 "data": [
  ["CC[C@@]1(O)C(=O)OCc2c1cc1n(c2=O)Cc2cc3c(CN(C)C)c(O)ccc3nc2-1 + Cc1cccc(N(C)C(=O)C2C(O)CCN2c2nc(C)cc(C(F)(F)F)c2C#N)c1", "%", 96.1],
  ["Cn1ncnc1[C@H]1c2n[nH]c(=O)c3cc(F)cc(c23)N[C@@H]1c1ccc(F)cc1 + COC1C(OC(N)=O)C(O)C(Oc2ccc3c(O)c(NC(=O)c4ccc(O)c(CC=C(C)C)c4)c(=O)oc3c2C)OC1(C)C", "%", 106],
  ["CC[C@@]1(O)C(=O)OCc2c1cc1n(c2=O)Cc2cc3c(CN(C)C)c(O)ccc3nc2-1 + Nc1ccc(C#CCN(C(=O)Cc2ncc(C(F)(F)F)cc2C(F)(F)F)c2ccc(F)cc2)nn1", "%", 92],
  ["Cn1ncnc1[C@H]1c2n[nH]c(=O)c3cc(F)cc(c23)N[C@@H]1c1ccc(F)cc1 + Cc1cccc(N(C)C(=O)C2C(O)CCN2c2nc(C)cc(C(F)(F)F)c2C#N)c1", "%", 111],
  ["CC[C@@]1(O)C(=O)OCc2c1cc1n(c2=O)Cc2cc3c(CN(C)C)c(O)ccc3nc2-1 + COC1C(OC(N)=O)C(O)C(Oc2ccc3c(O)c(NC(=O)c4ccc(O)c(CC=C(C)C)c4)c(=O)oc3c2C)OC1(C)C", "%", 92.7]
]}

Turning to the following compound.
Task: Consider the compound Cn1ncnc1[C@H]1c2n[nH]c(=O)c3cc(F)cc(c23)N[C@@H]1c1ccc(F)cc1 + Nc1ccc(C#CCN(C(=O)Cc2ncc(C(F)(F)F)cc2C(F)(F)F)c2ccc(F)cc2)nn1 and give its measured viability, T/C.
Result: 116

###

Entries and their viability, T/C values follow.
- System: 994946-033-R-J1-PDC complex spheroid viability
- assay-details: Anticancer human tumor 994946-033-R-J1-PDC cell line growth inhibition [POLQ];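 further: spheroids exposed to drugs for 7 days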;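 on viability, T/C: 100% = DMSO vehicle treated spheroids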
- test-context: second compound 3.16 µM; first compound 0.0316 µM; stronger effect = lower value
- Experimental: Multicellular complex tumor spheroid response to Polymerase (POL) inhibitors (novobiocin, ART-558, RP6685) in combination with a variety of drugs and investigational agents in selected tumor cell lines The POL inhibitors (novobiocin, ART-558, and RP6685) were evaluated both individually and in combination with standard of care and investigational anticancer small molecules within a complex spheroid model of solid tumors. . […]
Field format: number, assumed %, no unit text.

{"columns": ["molecule", "units-symbol", "result-number"],
 "data": [
  ["CC1COCCN1c1cc(C2(O)CC3CCC(C2)O3)c2cnn(-c3ccn[nH]3)c2n1 (stereo not given) + Nc1ccc(C#CCN(C(=O)Cc2ncc(C(F)(F)F)cc2C(F)(F)F)c2ccc(F)cc2)nn1", "%", 55.6],
  ["CCCS(=O)(=O)Nc1ccc(F)c(C(=O)c2c[nH]c3ncc(-c4ccc(Cl)cc4)cc23)c1F + COC1C(OC(N)=O)C(O)C(Oc2ccc3c(O)c(NC(=O)c4ccc(O)c(CC=C(C)C)c4)c(=O)oc3c2C)OC1(C)C", "%", 113],
  ["CCc1c2c(nc3ccc(O)cc13)-c1cc3c(c(=O)n1C2)COC(=O)[C@]3(O)CC + COC1C(OC(N)=O)C(O)C(Oc2ccc3c(O)c(NC(=O)c4ccc(O)c(CC=C(C)C)c4)c(=O)oc3c2C)OC1(C)C", "%", 4.15],
  ["C=CC(=O)N1CCN(c2nc(=O)n(-c3c(C)ccnc3C(C)C)c3nc(-c4c(O)cccc4F)c(F)cc23)C(C)C1 (stereo not given) + Cc1cccc(N(C)C(=O)C2C(O)CCN2c2nc(C)cc(C(F)(F)F)c2C#N)c1", "%", 130],
  ["O=C(c1cc(Cc2n[nH]c(=O)c3ccccc23)ccc1F)N1CCN(C(=O)C2CC2)CC1 + Cc1cccc(N(C)C(=O)C2C(O)CCN2c2nc(C)cc(C(F)(F)F)c2C#N)c1", "%", 105],
  ["COc1cccc2c1C(=O)c1c(O)c3c(c(O)c1C2=O)CC(O)(C(=O)CO)CC3OC1CC(N)C(O)C(C)O1 (stereo not given) + Cc1cccc(N(C)C(=O)C2C(O)CCN2c2nc(C)cc(C(F)(F)F)c2C#N)c1", "%", 22.8],
  ["CC1COCCN1c1cc(C2(S(C)(=N)=O)CC2)nc(-c2ccnc3[nH]ccc23)n1 (stereo not given) + COC1C(OC(N)=O)C(O)C(Oc2ccc3c(O)c(NC(=O)c4ccc(O)c(CC=C(C)C)c4)c(=O)oc3c2C)OC1(C)C", "%", 101],
  ["CC1COCCN1c1cc(C2(O)CC3CCC(C2)O3)c2cnn(-c3ccn[nH]3)c2n1 (stereo not given) + COC1C(OC(N)=O)C(O)C(Oc2ccc3c(O)c(NC(=O)c4ccc(O)c(CC=C(C)C)c4)c(=O)oc3c2C)OC1(C)C", "%", 46.6]
]}

Task: // lookup viability, T/C for CCCS(=O)(=O)Nc1ccc(F)c(C(=O)c2c[nH]c3ncc(-c4ccc(Cl)cc4)cc23)c1F + Cc1cccc(N(C)C(=O)C2C(O)CCN2c2nc(C)cc(C(F)(F)F)c2C#N)c1
Result: 103

Task: Could you tell me which viability, T/C is on file for C#Cc1c(F)ccc2cc(O)cc(-c3ncc4c(N5CC6CCC(C5)N6)nc(OCC56CCCN5CC(F)C6)nc4c3F)c12 (stereo not given) + Nc1ccc(C#CCN(C(=O)Cc2ncc(C(F)(F)F)cc2C(F)(F)F)c2ccc(F)cc2)nn1 ?
Result: 74.4

###

viability, T/C values by entry
- Tested on: 994946-033-R-J1-PDC complex spheroid viability
- assay-details: Anticancer human tumor 994946-033-R-J1-PDC cell line growth inhibition [POLQ];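 further: spheroids exposed to drugs for 7 days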;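 on viability, T/C: 100% = DMSO vehicle treated spheroids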
- test-context: second compound 0.0316 µM; first compound 0.316 µM; stronger effect = lower value

Task: Would you mind telling me what viability, T/C value was observed for COc1ccc([C@@H](O)c2cc(-c3ncnc4cc(N5CCOCC5)ccc34)c(F)cc2Cl)nn1 + COC1C(OC(N)=O)C(O)C(Oc2ccc3c(O)c(NC(=O)c4ccc(O)c(CC=C(C)C)c4)c(=O)oc3c2C)OC1(C)C ?
Result: 83.5%

Task: Which value of viability, T/C has been reported for COc1cc2cc(C(=O)CCC(=O)O)sc2cc1OC + Nc1ccc(C#CCN(C(=O)Cc2ncc(C(F)(F)F)cc2C(F)(F)F)c2ccc(F)cc2)nn1 in the records?
Result: 92.4%

Task: Fill in: viability, T/C of Nc1ccn(C2OC(CO)C(O)C2(F)F)c(=O)n1 (stereo unspecified) + Nc1ccc(C#CCN(C(=O)Cc2ncc(C(F)(F)F)cc2C(F)(F)F)c2ccc(F)cc2)nn1 is ___
Result: 13.9%
